PBM E-score reference
target: Cst6 (UniProt P40535); test: PBM E-score (8-mer binding enrichment) (E-score (-0.5 to 0.5)); higher = stronger / more preferred TF binding; settings: protein concentration: 200 nM; construct: GST-DNA-binding domain
Sequence (P40535 whole entry, the tested form may be a part): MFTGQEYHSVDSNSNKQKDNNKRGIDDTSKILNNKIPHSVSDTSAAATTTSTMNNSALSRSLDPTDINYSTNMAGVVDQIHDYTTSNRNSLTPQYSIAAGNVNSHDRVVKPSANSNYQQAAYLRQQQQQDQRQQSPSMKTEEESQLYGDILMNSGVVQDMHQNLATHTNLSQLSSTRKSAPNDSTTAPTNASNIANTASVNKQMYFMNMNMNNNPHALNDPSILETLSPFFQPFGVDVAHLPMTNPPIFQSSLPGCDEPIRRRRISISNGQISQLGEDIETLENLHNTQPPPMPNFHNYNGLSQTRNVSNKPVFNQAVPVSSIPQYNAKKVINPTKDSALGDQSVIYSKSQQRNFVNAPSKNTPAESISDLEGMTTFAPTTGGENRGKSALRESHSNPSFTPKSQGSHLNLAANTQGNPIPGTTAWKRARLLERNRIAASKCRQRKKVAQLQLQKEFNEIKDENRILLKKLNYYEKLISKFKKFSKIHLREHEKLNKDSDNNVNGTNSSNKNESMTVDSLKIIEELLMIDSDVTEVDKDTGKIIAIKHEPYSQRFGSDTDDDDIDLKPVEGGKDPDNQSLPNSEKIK
Over roughly 33,000 sequences, “E-score (-0.5 to 0.5)” has its median near -0.016; the highest 2% begin near 0.31. This excerpt belongs to a sample that is enriched for the highest values.
readout: PBM E-score

1) GCGATTAC: 0.184
2) TATTTCAA: 0.318
3) AATCGGGT: 0.191
4) AATCCCTC: -0.0193
5) GAGCCTGC: -0.173
6) GTAATCTA: 0.345
7) ACTATTAC: 0.201
8) CGACGGCG: 0.257
9) CACGTACC: -0.0025
10) TCATGTCA: 0.382
11) GGGGAAAA: -0.101
12) CATTTAAA: 0.279
13) AATTTATA: 0.263
14) CATATCCC: 0.0321
15) ACGTCATA: 0.494
16) CTGAAATC: 0.0366
17) ACACGGCT: 0.266
18) CACGTAAC: 0.262
19) AGGAGAAG: -0.154
20) AAATTAGT: 0.29
21) AATTTATC: 0.312
22) ATTATTAC: 0.339
23) ATAATTAG: 0.223
24) ATAATCTA: 0.0831
25) AAGCCGAC: -0.231
26) ATAGTCGA: 0.168
27) CTAGACTC: -0.329
28) AAAATTAA: 0.115
29) ATTTTAAA: 0.308
30) GATTTCAA: -0.0222
31) AAACGCCA: 0.18
32) GTTTTAAA: 0.196
33) CTAATCTA: -0.0326
34) AAGCGTGA: 0.141
35) CCAGGGCC: -0.39
36) AATATTAT: 0.242
37) ATGTCGTG: 0.0262
38) CTTATTAC: 0.231
39) CCTCCCTC: -0.162
40) AAATTATC: 0.308
41) CATATTAA: 0.234
42) CGATGTAA: 0.117
43) ATGGCACG: 0.111
44) ATGAAATA: 0.283
45) TGATGTAA: 0.488
46) TCTGGCCA: -0.0762
47) ATGACTCC: 0.0246
48) CTGTCATC: 0.186
49) AATATTAG: 0.185
50) CCACCCGA: -0.0893
51) ATGTGGGG: -0.237
52) AGTATTTA: 0.171
53) AGGTCATC: 0.231
54) ATGAAATC: 0.314
55) AGCATGCA: -0.103
56) GACGTAAC: 0.46
57) TCCGTAAA: -0.0237
58) ATTCGATC: 0.153
59) CGATGCAA: -0.0639
60) CAACGCCG: 0.191
61) TGCGTAAA: 0.218
62) ATGTCATA: 0.442
63) CTTAGCAA: -0.0618
64) AAGGGGCA: -0.178
65) CGCCTTAC: 0.163
66) ACATGTCA: 0.275
67) ATTGTTAG: 0.129
68) GACGTAGC: 0.166
69) CCGTCATA: 0.363
70) ATGACTCA: 0.309
71) AGAGTACC: -0.135
72) CATTTCAA: 0.222
73) ATGATCAT: 0.198
74) AAGTCATG: 0.185
75) CATTTATC: 0.151
76) CTTGCGGC: -0.0317
77) AGCCGACA: -0.162
78) AGACGGCG: 0.305
79) ACGCTGCT: -0.22
